The origin of these recorded values is patent US5614562A.

# System: HT29 human colon carcinoma cells
# experimentDescription: Growth inhibition cytotoxicity against HT29 human colon carcinoma cells (MER(+))
# Type: cell-based
# assaySetup: HT-29
# Text: (Example 15) These cells are very high in the alkyltransferase enzyme for repair of DNA guanine O6-alkyl products, and therefore are considered strongly MER(+) in phenotype. Levels of this enzyme in HT29 cells have averaged about 0.5 pmol/mg protein in recent studies (K. Chan, et al., unpublished). […] Thus, the lack of cross-resistance to ethyleneimines by the present invention of 2-chloroethyl aryl selenones is not associated with resistence mediated by the alkyltransferase repair enzyme.
pIC50: −log10 of the molar value.
Overview of reported pIC50 across a group of compounds:
attributeMeasured: pIC50

>  <compound>
NC(=O)N(CCCl)N=O [chloroethylnitrosourea (CNU), chloroethylnitrosourea, reference compound]

>  <recordedNumber>
3.60

$$$$
>  <compound>
O=[Se](=O)(CCCl)c1ccccc1 [2-chloroethyl phenyl selenone]

>  <recordedNumber>
5.55

$$$$
